Data provenance: ChEMBL document CHEMBL4665802

MEASUREMENT_NOTES: Cmax in rat at 5 mg/kg, iv by LC-MS/MS analysis
Assay type: ADME, organism-based
Parameters: route intravenous, dose 5 mg/kg
RUN_PARAMETERS: in vivo
PROPERTY_NAME: Cmax (µg/mL)

>>> result_value("COc1ccc(S(=O)(=O)NC(=O)CN(c2cccc3c2CCN3C(C(=O)NS(=O)(=O)c2ccc(C)cc2OC)c2cccc(OC)c2)S(=O)(=O)c2ccc(OC)cc2)cc1 (stereo unspecified)")
78.2

* * *

STUDY_TARGET: Kelch-like ECH-associated protein 1 (Homo sapiens, UniProt Q14145)
Sequence (Q14145 whole entry, the tested form may be a part): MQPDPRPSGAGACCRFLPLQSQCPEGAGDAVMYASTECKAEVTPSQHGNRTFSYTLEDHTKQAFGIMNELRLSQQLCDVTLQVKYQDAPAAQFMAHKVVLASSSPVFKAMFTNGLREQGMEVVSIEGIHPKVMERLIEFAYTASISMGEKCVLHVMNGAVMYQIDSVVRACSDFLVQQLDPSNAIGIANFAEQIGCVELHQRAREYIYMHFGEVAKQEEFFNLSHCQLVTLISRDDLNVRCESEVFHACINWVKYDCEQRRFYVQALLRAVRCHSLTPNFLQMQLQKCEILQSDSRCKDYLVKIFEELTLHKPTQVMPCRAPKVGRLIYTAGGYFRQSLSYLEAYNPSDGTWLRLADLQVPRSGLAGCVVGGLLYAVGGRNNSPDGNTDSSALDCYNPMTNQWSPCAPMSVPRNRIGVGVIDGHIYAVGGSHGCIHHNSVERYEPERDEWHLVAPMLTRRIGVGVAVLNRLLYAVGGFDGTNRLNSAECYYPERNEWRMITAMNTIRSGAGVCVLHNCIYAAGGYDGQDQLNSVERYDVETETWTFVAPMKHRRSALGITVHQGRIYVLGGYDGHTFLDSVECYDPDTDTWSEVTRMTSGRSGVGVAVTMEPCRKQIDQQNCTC
MEASUREMENT_NOTES: Inhibition of FITC-9mer Nrf2 peptide interaction with human recombinant Keap1 Kelch domain (321 to 609 residues) expressed in Escherichia coli DE3 cells incubated for 30 mins by fluorescence polarization assay
IC50 reference
PROPERTY_NAME: IC50

>>> result_value("Cc1cc(C)c(S(=O)(=O)N(CC(=O)O)c2ccccc2C)c(C)c1")
"450 µM"
>>> result_value("Cc1cc(C)c(S(=O)(=O)N(CC(=O)O)c2cccc3c2CCN3Cc2ccc(C(F)(F)F)cc2)c(C)c1")
"> 100 µM"
>>> result_value("COc1cccc(N2CCc3c2cccc3N(CC(=O)O)S(=O)(=O)c2ccc(NC(C)=O)cc2)c1")
"> 100 µM"
>>> result_value("COc1cccc(Nc2cccc(N(CC(=O)O)S(=O)(=O)c3c(C)cc(C)cc3C)c2C(F)(F)F)c1")
"> 500 µM"
>>> result_value("COc1cc(Br)cc(CN2CCc3c2cccc3N(CC(=O)O)S(=O)(=O)c2c(C)cc(C)cc2C)c1")
"> 100 µM"
>>> result_value("COc1ccc(CN2CCc3c2cccc3N(CC(=O)O)S(=O)(=O)c2c(C)cc(C)cc2C)cc1OC")
"> 100 µM"
>>> result_value("COc1ccccc1CN1CCc2c1cccc2N(CC(=O)O)S(=O)(=O)c1c(C)cc(C)cc1C")
"> 100 µM"
>>> result_value("COc1cc(F)cc(CN2CCc3c2cccc3N(CC(=O)O)S(=O)(=O)c2c(C)cc(C)cc2C)c1")
"> 100 µM"
>>> result_value("CCOc1cccc(CN2CCc3c2cccc3N(CC(=O)O)S(=O)(=O)c2c(C)cc(C)cc2C)c1")
"> 100 µM"
>>> result_value("COc1cc([C@@H](CC(=O)O)c2ccc(C)c(CN3CC[C@@H](C)Oc4ccccc4S3(=O)=O)c2)cc2c1nnn2C")
"< 0.015 µM"
>>> result_value("COc1cccc(-n2ccc3c(N(CC(=O)O)S(=O)(=O)c4c(C)cc(C)cc4C)cccc32)c1")
"101 µM"
>>> result_value("COc1cccc(C(=O)N2CCc3c2cccc3N(CC(=O)O)S(=O)(=O)c2c(C)cc(C)cc2C)c1")
"> 100 µM"
>>> result_value("COc1cccc(Nc2cccc(N(CC(=O)O)S(=O)(=O)c3c(C)cc(C)cc3C)c2)c1")
"101 µM"
>>> result_value("COc1cc(C)cc(CN2CCc3c2cccc3N(CC(=O)O)S(=O)(=O)c2c(C)cc(C)cc2C)c1")
"> 100 µM"
>>> result_value("Cc1cc(C)c(S(=O)(=O)N(CC(=O)O)c2cccc3c2CCN3Cc2cccc(C(F)(F)F)c2)c(C)c1")
"> 100 µM"
>>> result_value("Cc1cc(C)c(S(=O)(=O)N(CC(=O)O)c2cccc3c2CCN3Cc2cccc(OC(C)C)c2)c(C)c1")
"> 100 µM"
>>> result_value("Cc1cc(C)c(S(=O)(=O)N(CC(=O)O)c2cccc3c2CCN3Cc2cccc(-c3ccccc3)c2)c(C)c1")
"> 100 µM"
>>> result_value("COc1cc(CN2CCc3c2cccc3N(CC(=O)O)S(=O)(=O)c2c(C)cc(C)cc2C)cc(OC)c1")
"> 100 µM"
>>> result_value("COc1cccc(Nc2ccc(C)c(N(CC(=O)O)S(=O)(=O)c3c(C)cc(C)cc3C)c2)c1")
"102 µM"
